Every entry's value here was drawn from paper PMC5540273.

Entries and their %Inh
System: CDK4;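 also: KINOMEscan kinase panel screen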
Conditions: concentration: 1 μM,replicates: in singlicate; n = 1
measurementKind: %Inh (%)

{"molecule": "C[C@@H]1CNc2c(sc3ccc4nc(-c5ccc(O)cc5)ccc4c23)C(=O)N1", "targetOrSystem": "CDK4", "measurementKind": "%Inh", "reported": 4}
{"molecule": "C[C@@H]1CNc2c(sc3ccc4nc(-c5ccncc5)ccc4c23)C(=O)N1", "targetOrSystem": "CDK4", "measurementKind": "%Inh", "reported": 0}
{"molecule": "O=C1NCCc2[nH]c(-c3ccncc3)cc21", "targetOrSystem": "CDK4", "measurementKind": "%Inh", "reported": 27}
{"molecule": "CC(=O)Nc1nc2cnc(Nc3cc(NC(=O)c4cccc(CC(C)(C)C#N)c4)ccc3C)nc2s1", "targetOrSystem": "CDK4", "measurementKind": "%Inh", "reported": 45}
{"molecule": "N#Cc1cccc(C(=O)NC2CCN(c3ccnc(Nc4ccc(F)cc4)n3)C2)c1 (stereo not drawn) [GSK1379708]", "targetOrSystem": "CDK4", "measurementKind": "%Inh", "reported": 10}
{"molecule": "CS(=O)(=O)Nc1ccc(-c2ccnc3[nH]ccc23)cc1 [GSK993273]", "targetOrSystem": "CDK4", "measurementKind": "%Inh", "reported": 0}
{"molecule": "CS(=O)(=O)c1cccc(CNc2nc(Nc3ccc4c(c3)[C@@H]3C[C@@H]4CNC3=O)ncc2C(F)(F)F)c1", "targetOrSystem": "CDK4", "measurementKind": "%Inh", "reported": 60}
{"molecule": "CNC(=O)c1ccccc1Nc1nc(Nc2cccc(CS(C)(=O)=O)c2)ncc1C.O=CO [GSK1520489]", "targetOrSystem": "CDK4", "measurementKind": "%Inh", "reported": 30}
{"molecule": "NC(=O)Nc1sc(-c2ccc(F)cc2)cc1C(N)=O [GW789449]", "targetOrSystem": "CDK4", "measurementKind": "%Inh", "reported": 0}
